test system: ATP; assay: switch fluorescence ratio, 500 uM ATP over buffer (Cy3 cluster intensity, sum of 5 cycles each) (fold (ratio)); higher = stronger signal-on switching upon ATP binding; sequences stand for … in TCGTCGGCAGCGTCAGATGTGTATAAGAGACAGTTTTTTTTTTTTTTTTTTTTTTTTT…TC; conditions: aptamer strand: ATP DNA aptamer (quencher-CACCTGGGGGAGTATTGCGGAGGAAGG + anchor), 100 nM annealed; ATP concentration: 500 uM;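 also: ATP exposure 15 min at 22 °C before imaging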
reported_metric: switch fluorescence ratio
Please state the value as a number alone, without comment.

sequence_string	switch fluorescence ratio
TACGGGAGGC	1.02
CGTTTCCTTT	0.993
TGTGGCATGA	0.974

Return reported switch fluorescence ratio; argument: `GCGCTCGGCA`
1.02

Let us now turn to `GCGGGAAAGT`
0.957

Let us now turn to `TCGAGTCATC`
0.965

Let us now turn to `CTGATTGTAC`
1.08

Let us now turn to `GATTCAGGAG`
1

Let us now turn to `TTGACCAATA`
1.12
